# inhibition annotations
Target: Glutamate NMDA receptor (Rattus norvegicus) (UniProt P35439+Q00959+Q00960+Q00961+Q62645+Q8VHN2+Q9R1M7)
Assay: Antagonist activity at NMDA receptor in Sprague-Dawley rat striatal synaptoneurosomes assessed as inhibition of NMDA/glycine-induced calcium flux at 100 uM by spectrofluorimetric analysis relative to control
Assay type: functional
Numeric answer only, unit % assumed.

Record excerpt, results attached:
| compound | unit annotation | inhibition |
| --- | --- | --- |
| CN(C)c1cccc2c(S(=O)(=O)NCCCNC34CC5CC(CC(C5)C3)C4)cccc12 | % | 37 |
| O=[N+]([O-])c1ccc(NCCCNC23CC4CC(CC(C4)C2)C3)c([N+](=O)[O-])c1 | % | 23.4 |
| CNc1ccccc1C(=O)OC12C3C4CC5C6C4C1C6C1(OCCCN12)C53 (stereo unspecified) | % | 12 |
| N#CCCNC12CC3CC(CC(C3)C1)C2 | % | 19.3 |
| O=C(NC12CC3CC(CC(C3)C1)C2)c1cc2ccccc2oc1=O | % | 20.3 |

Next compound, please.
Recorded inhibition (compound `O=C(NCCCNC12CC3CC(CC(C3)C1)C2)c1cc2ccccc2oc1=O` ): 13.2
